Would you mind telling me the reported inhibition of each entry?
- target-entity: Tyrosine-protein kinase ABL1 (Homo sapiens);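 note: reported values are mean percent inhibition of ABL1 kinase activity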
- experimental-parameters: at 1 µM
Answers are plain numbers, in %.

Worked examples, 5 compounds total:
{"columns": ["compound-structure", "target-entity", "quantity-name", "result"],
 "data": [
  ["CCNC(=O)O[C@H]1CN[C@H](C#Cc2cc3ncnc(Nc4ccc(OCc5cccc(F)c5)c(Cl)c4)c3s2)C1", "Tyrosine-protein kinase ABL1 (Homo sapiens)", "inhibition", 4.84],
  ["CCn1c(-c2nonc2N)nc2ccccc21", "Tyrosine-protein kinase ABL1 (Homo sapiens)", "inhibition", 6.01],
  ["COc1cc2ncn(-c3cc(OCc4ccccc4C(F)(F)F)c(C(=O)N(C)C)s3)c2cc1OC", "Tyrosine-protein kinase ABL1 (Homo sapiens)", "inhibition", 18.7],
  ["COc1ccc(-c2cc(-c3c[nH]nc3-c3ccccn3)ccn2)cc1", "Tyrosine-protein kinase ABL1 (Homo sapiens)", "inhibition", 59.8],
  ["COc1cc(/C=N/Nc2ncnc3[nH]ncc23)ccc1O", "Tyrosine-protein kinase ABL1 (Homo sapiens)", "inhibition", 78.9]
]}

Kindly give each listed record's inhibition.
1. CCn1c(-c2nonc2N)nc2c(C#CC(C)(C)O)ncc(OC3CCNCC3)c21
2. c1ccc(COc2ccc(Nc3ncnc4ccc(-c5ccco5)cc34)cc2)cc1

1. 3.17
2. 1
